Tested on: PPARg DBDmut IVT, anti-PPARg (DBD mutation: PPARg1 K132A/R137A, NR concentration 270 nM)
EXPERIMENT: PBM binding z-score (relative to random genomic background probes); higher = stronger binding; sequences stand for … in GC…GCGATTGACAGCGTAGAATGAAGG
PBM binding z-score for assorted sequences
ASSAY READOUT: PBM binding z-score

RESIDUES | ASSAY READOUT | MEAS VALUE
GCTATTATTTGAAAGGGCAACCGAATGATTCTCG | PBM binding z-score | 0.619
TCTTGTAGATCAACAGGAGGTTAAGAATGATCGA | PBM binding z-score | 0.577
ACTATTAGTTTAGACGAGGGCAACCGATAGGTTG | PBM binding z-score | 1.14
TTACCAAGGTGACGGTCGTTGATCCCTCTGTAGA | PBM binding z-score | -0.126
TCTAGCAGGCCAGAGGGTGACTCAAGAGGTACGG | PBM binding z-score | -1.1
CCTTGCGGGTCACTCCAGGTTATAGCATCGGAGT | PBM binding z-score | 0.356
TAGCCTAGGTCATTCAGGGTCCAGTATAGAAAGC | PBM binding z-score | 0.0908
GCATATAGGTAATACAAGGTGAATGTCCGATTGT | PBM binding z-score | 0.61
GCTATTAGTTGAAAGGGCACCCGAATGATTCTCG | PBM binding z-score | 0.368
TAGCTTAGGTCATTCAGGGGCCAGTATAGAAAGC | PBM binding z-score | 1.33
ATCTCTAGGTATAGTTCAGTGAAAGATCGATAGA | PBM binding z-score | 2.13

* * *

Tested on: RARa homodimer (NR concentration 270 nM)
EXPERIMENT: PBM binding z-score (relative to random genomic background probes); higher = stronger binding; sequences stand for … in GC…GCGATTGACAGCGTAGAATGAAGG
Where PBM binding z-score equals or exceeds 0.4, the correct label is fulfilled; where it does not, the label is not fulfilled.

RESIDUES | ASSIGNED CLASS
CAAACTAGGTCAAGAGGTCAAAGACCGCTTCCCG | fulfilled
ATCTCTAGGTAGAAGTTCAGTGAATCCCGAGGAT | fulfilled
TCTTGTAGATCATAGGTTAAGAAAGCCGAAGCCT | not fulfilled
ACTATTAGTTGACTTAGGGCAACCGATACGACGC | fulfilled
TAGCCCAGGTCAGATCGGGCCAGTATACGCTATA | not fulfilled
CAAACTAGGTCAAGGTCCAAGTCGGTTTGTGCCA | fulfilled
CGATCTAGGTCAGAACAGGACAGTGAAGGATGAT | fulfilled
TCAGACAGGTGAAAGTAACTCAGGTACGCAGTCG | not fulfilled
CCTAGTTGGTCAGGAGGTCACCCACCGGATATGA | fulfilled
TCTTGTAGATCCAAGGTTAAGAAAGCCGAAGCCT | not fulfilled
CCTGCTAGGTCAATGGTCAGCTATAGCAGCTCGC | not fulfilled

* * *

Test system: RARg:RXRa (NR concentration 270 nM, RXRa partner concentration 90 nM)
EXPERIMENT: PBM binding z-score (relative to random genomic background probes); higher = stronger binding; sequences stand for … in GC…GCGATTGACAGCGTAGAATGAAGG
Where PBM binding z-score equals or exceeds 0.8, the correct label is Satisfied; where it does not, the label is Not satisfied.

RESIDUES | ASSIGNED CLASS
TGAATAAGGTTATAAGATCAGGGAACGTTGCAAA | Satisfied
ACTTACGGGTCAACTAGGTTATAGCACGCGTATA | Satisfied
TTACCAAGGTGAGCTGAGGTCGTAGATCCAACTC | Satisfied
GCTAGTTGGTCAGTAAAAGGTCACCCACCGGTCG | Satisfied
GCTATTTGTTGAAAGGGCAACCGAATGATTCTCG | Satisfied
TCTTGTAGATCACCAGGAGGTTAAGAAAGATCGA | Satisfied
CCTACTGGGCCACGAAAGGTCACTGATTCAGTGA | Satisfied
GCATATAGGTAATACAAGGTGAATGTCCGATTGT | Not satisfied
CGTCCAAGGTCATAGGAGGTTAGTGAAGACAGAT | Satisfied
CCTACTGGGCCATGGTCATTGATCAGTCAAAGCA | Not satisfied
CCGACTAGGTTATGGGGCATTCAGGCAACGGTGA | Not satisfied
